Tested on: Amaranthus retoflexus (AMARE)
test.method.notes: Pre-emergence herbicide glasshouse test
Assay type: in vivo
measurement.parameters: 250 g/ha, evaluated after 13 days, five-point scale
Protocol: Seeds of a variety of test species are sown in standard soil in pots Amaranthus retoflexus (AMARE), Amaranthus palmeri (AMAPA), Echinochloa crus-galli (ECHCG), Ipomoea hederacea (IPOHE), Setaria faberi (SETFA). […] After 13 days for pre and post-emergence, the test is evaluated for the percentage damage caused to the plant. […]
Entries and their measured percentage damage caused to the plant, AMARE follow.

Q: Entry under review: FC(F)(F)c1ncc(-c2nc(C(F)(F)F)nc3cccc(Oc4ncc(Cl)cn4)c23)cn1 . Reported percentage damage caused to the plant, AMARE?
Result: 1 (1=0-20%)

Q: Likewise for FC(F)(F)c1nc(CCC2CC2)c2c(Oc3ncc(Cl)cn3)cccc2n1 ?
Result: 5 (5=81-100%)

Q: Likewise for Fc1ccc(-c2nc(C(F)(F)F)nc3cccc(Oc4ncc(Cl)cc4F)c23)cc1 ?
Result: 1 (1=0-20%)

---

Test system: Amaranthus retoflexus (AMARE)
test.method.notes: Pre-emergence herbicide glasshouse test
Assay type: in vivo
measurement.parameters: 250 g/ha, evaluated after 13 days, five-point scale
Entries and their measured percentage damage caused to the plant, AMARE follow.

Consider the worked cases shown below.
molecule="FC(F)(F)CCC(Br)c1nc(C(F)(F)F)nc2cccc(Oc3ncc(Cl)cn3)c12 (stereo not shown)" result="5 (5=81-100%)"
molecule=FC(F)c1cc(-c2nc(C(F)(F)F)nc3cccc(Oc4ncc(Cl)cn4)c23)on1 result="5 (5=81-100%)"
molecule=FC(F)(F)c1nc(CCCC2CC2)c2c(Oc3ncc(Cl)cn3)cccc2n1 result="4 (4=61-80%)"

Next, consider the following molecule.
Q: Entry under review: OCCCc1nc(C(F)(F)F)nc2cccc(Oc3ncc(Cl)cn3)c12 . Reported percentage damage caused to the plant, AMARE?
Result: 3 (3=41-60%)

---

System: Echinochloa crus-galli (ECHCG)
test.method.notes: Pre-emergence herbicide glasshouse test
Type: in vivo
measurement.parameters: 250 g/ha, evaluated after 13 days, five-point scale
property.name: percentage damage caused to the plant, ECHCG

compound=CCON=CCc1nc(C(F)(F)F)nc2cccc(Oc3ncc(Cl)cn3)c12 result="1 (1=0-20%)"
compound=FC(F)(F)c1nc(C2CC2)c2c(Oc3ncc(Cl)cn3)cccc2n1 result="3 (3=41-60%)"
compound=CCO/N=C/CCc1nc(C(F)(F)F)nc2cccc(Oc3ncc(Cl)cn3)c12 result="5 (5=81-100%)"

Next, consider the following compound.
Q: Entry under review: FC(F)(F)c1nc(CCC2CCOC2)c2c(Oc3ncc(Cl)cn3)cccc2n1 (stereo not shown) . Reported percentage damage caused to the plant, ECHCG?
Result: 5 (5=81-100%)

---

Test system: Amaranthus retoflexus (AMARE)
test.method.notes: Pre-emergence herbicide glasshouse test
Format: in vivo
measurement.parameters: 250 g/ha, evaluated after 13 days, five-point scale
property.name: percentage damage caused to the plant, AMARE

Consider the worked cases shown below.
compound=O=C(c1ccncc1)c1nc(C(F)(F)F)nc2cccc(Oc3ncc(Cl)cn3)c12 result="3 (3=41-60%)"
compound="C=CCON=CCCc1nc(C(F)(F)F)nc2cccc(Oc3ncc(Cl)cn3)c12 [Compound 1.067]" result="3 (3=41-60%)"
compound=O=C(c1ccc(F)cn1)c1nc(C(F)(F)F)nc2cccc(Oc3ncc(Cl)cn3)c12 result="2 (2=21-40%)"
compound=CC(=NOCC(F)(F)F)c1nc(C(F)(F)F)nc2cccc(Oc3ncc(Cl)cn3)c12 result="1 (1=0-20%)"
compound=CCNC(=O)CCc1nc(C(F)(F)F)nc2cccc(Oc3ncc(Cl)cn3)c12 result="1 (1=0-20%)"
compound="C=CCON=CCCc1nc(C(F)(F)F)nc2cccc(Oc3ncc(Cl)cn3)c12 [Compound 1.011]" result="5 (5=81-100%)"
compound=CCON=CCc1nc(C(F)(F)F)nc2cccc(Oc3ncc(Cl)cn3)c12 result="1 (1=0-20%)"

Next, consider the following compound.
Q: Query the reported percentage damage caused to the plant, AMARE for Amaranthus retoflexus (AMARE); item: FC(F)(F)c1nc(C2CC2)c2c(Oc3ncc(Cl)cn3)cccc2n1
Result: 2 (2=21-40%)

---

Test system: Amaranthus palmeri (AMAPA)
test.method.notes: Post-emergence herbicide glasshouse test
Format: in vivo
measurement.parameters: 250 g/ha, evaluated after 13 days, five-point scale
Procedure: Seeds of a variety of test species are sown in standard soil in pots Amaranthus retoflexus (AMARE), Amaranthus palmeri (AMAPA), Echinochloa crus-galli (ECHCG), Ipomoea hederacea (IPOHE), Setaria faberi (SETFA). […] After 13 days for pre and post-emergence, the test is evaluated for the percentage damage caused to the plant. […]
property.name: percentage damage caused to the plant, AMAPA

compound="CON=CCc1nc(C(F)(F)F)nc2cccc(Oc3ncc(Cl)cn3)c12 [Compound 1.007]" result="2 (2=21-40%)"
compound="OCCCc1nc(C(F)(F)F)nc2cccc(Oc3ncc(Cl)cn3)c12 [Compound 1.039]" result="3 (3=41-60%)"
compound="N#CCCc1nc(C(F)(F)F)nc2cccc(Oc3ncc(Cl)cn3)c12 [Compound 1.046]" result="5 (5=81-100%)"

Q: Query the reported percentage damage caused to the plant, AMAPA for Amaranthus palmeri (AMAPA); item: CC(=NOCC(F)(F)F)c1nc(C(F)(F)F)nc2cccc(Oc3ncc(Cl)cn3)c12 [Compound 1.018]
Result: 2 (2=21-40%)

---

Test system: Echinochloa crus-galli (ECHCG)
test.method.notes: Pre-emergence herbicide glasshouse test
Format: in vivo
measurement.parameters: 250 g/ha, evaluated after 13 days, five-point scale
Experimental: Seeds of a variety of test species are sown in standard soil in pots Amaranthus retoflexus (AMARE), Amaranthus palmeri (AMAPA), Echinochloa crus-galli (ECHCG), Ipomoea hederacea (IPOHE), Setaria faberi (SETFA). […] After 13 days for pre and post-emergence, the test is evaluated for the percentage damage caused to the plant. […]
property.name: percentage damage caused to the plant, ECHCG

Consider the worked cases shown below.
molecule="CC(=O)c1nc(C(F)(F)F)nc2cccc(Oc3ncc(Cl)cn3)c12 [Compound 1.028]" result="2 (2=21-40%)"
molecule="N#CCCc1nc(C(F)(F)F)nc2cccc(Oc3ncc(Cl)cn3)c12 [Compound 1.046]" result="5 (5=81-100%)"
molecule="FC(F)(F)c1nc(CCC2CCCCC2)c2c(Oc3ncc(Cl)cn3)cccc2n1 [Compound 1.045]" result="4 (4=61-80%)"

Next, consider the following molecule.
Q: Entry under review: ON=CCCc1nc(C(F)(F)F)nc2cccc(Oc3ncc(Cl)cn3)c12 [Compound 1.021] . Reported percentage damage caused to the plant, ECHCG?
Result: 3 (3=41-60%)

---

Test system: Amaranthus retoflexus (AMARE)
test.method.notes: Pre-emergence herbicide glasshouse test
Type: in vivo
measurement.parameters: 250 g/ha, evaluated after 13 days, five-point scale
Entries and their measured percentage damage caused to the plant, AMARE follow.

Consider the worked cases shown below.
molecule="FC(F)(F)c1nc(CCC2CCOC2)c2c(Oc3ncc(Cl)cn3)cccc2n1 (stereo not shown) [Compound 1.031]" result="5 (5=81-100%)"
molecule="FC(F)(F)c1nc(CCC2CC2)c2c(Oc3ncc(Cl)cn3)ccc(Br)c2n1 [Compound 1.060]" result="1 (1=0-20%)"
molecule="CCO/N=C\\CCc1nc(C(F)(F)F)nc2cccc(Oc3ncc(Cl)cn3)c12 [Compound 1.047]" result="4 (4=61-80%)"

Next, consider the following molecule.
Q: Query the reported percentage damage caused to the plant, AMARE for Amaranthus retoflexus (AMARE); item: Fc1ccc(-c2nc(C(F)(F)F)nc3cccc(Oc4ncc(Cl)cn4)c23)cc1 [Compound 1.042]
Result: 1 (1=0-20%)

---

System: Amaranthus retoflexus (AMARE)
test.method.notes: Pre-emergence herbicide glasshouse test
Format: in vivo
measurement.parameters: 250 g/ha, evaluated after 13 days, five-point scale
property.name: percentage damage caused to the plant, AMARE

Consider the worked cases shown below.
chemical_structure=CON1CCC(CCc2nc(C(F)(F)F)nc3cccc(Oc4ncc(Cl)cn4)c23)CC1 result="4 (4=61-80%)"
chemical_structure=CC(=O)N1CCC(CCc2nc(C(F)(F)F)nc3cccc(Oc4ncc(Cl)cn4)c23)CC1 result="2 (2=21-40%)"
chemical_structure=C=CCCc1nc(C(F)(F)F)nc2cccc(Oc3ncc(Cl)cn3)c12 result="4 (4=61-80%)"
chemical_structure=FC(F)(F)c1nc(CCC2COC2)c2c(Oc3ncc(Cl)cn3)cccc2n1 result="4 (4=61-80%)"

Next, consider the following compound.
Q: Entry under review: O=C(c1ccccn1)c1nc(C(F)(F)F)nc2cccc(Oc3ncc(Cl)cn3)c12 . Reported percentage damage caused to the plant, AMARE?
Result: 1 (1=0-20%)

---

System: Echinochloa crus-galli (ECHCG)
test.method.notes: Pre-emergence herbicide glasshouse test
Assay type: in vivo
measurement.parameters: 250 g/ha, evaluated after 13 days, five-point scale
property.name: percentage damage caused to the plant, ECHCG

Consider the worked cases shown below.
compound="OCC(O)CCc1nc(C(F)(F)F)nc2cccc(Oc3ncc(Cl)cn3)c12 (centres unmarked)" result="1 (1=0-20%)"
compound="C=CCON=CCCc1nc(C(F)(F)F)nc2cccc(Oc3ncc(Cl)cn3)c12 [Compound 1.067]" result="5 (5=81-100%)"
compound=CC(=O)N1CCC(CCc2nc(C(F)(F)F)nc3cccc(Oc4ncc(Cl)cn4)c23)CC1 result="2 (2=21-40%)"

Q: Entry under review: Cc1cnc(Oc2cccc3nc(C(F)(F)F)nc(CCC4CC4)c23)nc1 . Reported percentage damage caused to the plant, ECHCG?
Result: 5 (5=81-100%)

Q: Likewise for O=C(c1cccnc1)c1nc(C(F)(F)F)nc2cccc(Oc3ncc(Cl)cn3)c12 ?
Result: 4 (4=61-80%)

From: patent US20250179051A1
